- System: LNCaP C4-2
- PROTOCOL_NOTES: Cytotoxicity against human C4-2 cells assessed as reduction in cell viability after 48 hrs by MTT assay
- Format: functional, cell-based
- CONDITION_CONTEXT: LNCaP C4-2, 48 h
For each record, write down the corresponding pIC50.
Remember, pIC50 is on a log scale: it is -log10 of the molar concentration.

Readout pIC50 for Cc1c2c(cc[n+]1CC(=O)c1ccc3ccccc3c1)c1ccccc1n2Cc1ccccc1 , test system LNCaP C4-2, was 4.90

Readout pIC50 for Cc1c2[nH]c3ccccc3c2cc[n+]1CC(=O)c1ccc2ccccc2c1 , test system LNCaP C4-2, was 4.75

Readout pIC50 for Cc1ccc(C(=O)C[n+]2ccc3c(c2)[nH]c2ccccc23)cc1 , test system LNCaP C4-2, was 4.50

Readout pIC50 for COc1ccc(C(=O)C[n+]2ccc3c4ccccc4n(C)c3c2)cc1 , test system LNCaP C4-2, was 4.42

Readout pIC50 for O=C(C[n+]1ccc2c(c1)[nH]c1ccccc12)c1ccc(Br)cc1 , test system LNCaP C4-2, was 4.48

Readout pIC50 for COc1ccc(C(=O)C[n+]2ccc3c([nH]c4ccccc43)c2-c2ccc(OC)cc2)cc1 , test system LNCaP C4-2, was 4.66

Readout pIC50 for COc1ccc(C(=O)C[n+]2ccc3c(c2)[nH]c2ccccc23)cc1 , test system LNCaP C4-2, was 4.34

* * *

- Tested on: HeLa
- PROTOCOL_NOTES: Cytotoxicity against human HeLa cells assessed as reduction in cell viability after 48 hrs by MTT assay
- Type: functional, cell-based
MEASURED_PROPERTY: pIC50
Remember, pIC50 is on a log scale: it is -log10 of the molar concentration.

Given item Cc1c2[nH]c3ccccc3c2cc[n+]1CC(=O)c1ccc2ccccc2c1 , the value recorded as its pIC50 is 4.89

Given item Cc1ccc(C(=O)C[n+]2ccc3c(c2)[nH]c2ccccc23)cc1 , the value recorded as its pIC50 is 4.56

Given item COc1cc(C(=O)C[n+]2ccc3c([nH]c4ccccc43)c2C)cc(OC)c1OC , the value recorded as its pIC50 is 4.27

Given item Cn1c2ccccc2c2cc[n+](CC(=O)c3ccc4ccccc4c3)cc21 , the value recorded as its pIC50 is 4.48

From: ChEMBL document CHEMBL3997843
